The reported measurements were obtained from patent US11634434B2.

# subject_of_test: alpha-synuclein (Homo sapiens, UniProt P37840)
# protocol_description: Isothermal titration calorimetry (ITC) binding to alpha-synuclein
# conditions_used: Table 2
Mark rule not met for # Binding sites values under 1, and rule met for everything at or above.

molecule	group
CN(CCCCCCCc1nc2c(c(=O)n(C)c(=O)n2C)n1C)C(=N)NC(=N)N.Cl [Compound C8-7-M]	rule met
Cn1c(=O)c2c(nc(CCCCCCc3nc4c(c(=O)n(C)c(=O)n4C)n3C)n2C)n(C)c1=O [Compound C8-6-C8]	rule not met
Cn1c(=O)c2c(ncn2CCCCCCCCNC2CCc3ccccc32)n(C)c1=O (centres unmarked) [Compound C7-8-I]	rule not met
CN(C)C(=N)N=C(N)N [Metformin, metformin, reference compound]	rule met
Cn1c(=O)c2c(ncn2CCCCn2cnc3c2c(=O)n(C)c(=O)n3C)n(C)c1=O [Compound C7-4-C7]	rule not met
Cn1c(=O)c2c(ncn2CCCCCCn2cnc3c2c(=O)n(C)c(=O)n3C)n(C)c1=O [Compound C7-6-C7]	rule met
Cn1c(=O)c2c(ncn2CCCCCCCCn2cnc3c2c(=O)n(C)c(=O)n3C)n(C)c1=O [Compound C7-8-C7]	rule not met
NC1CCc2c(F)cccc21 (centres unmarked) [4-Fluoro-indan-1-yl-amine, reference compound]	rule not met

###

# subject_of_test: alpha-synuclein (Homo sapiens, UniProt P37840)
# protocol_description: Isothermal titration calorimetry (ITC) binding to alpha-synuclein
# conditions_used: Table 2, ITC
# Ka per entry
readout_label: Ka

compound	result
Cn1c(=O)c2c(ncn2CCNC2CCc3ccccc32)n(C)c1=O (stereo not drawn)	90000 M⁻¹
N[C@H]1CCc2ccccc21 [S-Aminoindan, reference compound]	3e+06 M⁻¹
Cn1c(=O)c2c(nc(CCCCCCNC3CCc4ccccc43)n2C)n(C)c1=O (racemic)	53000 M⁻¹

###

# subject_of_test: UniProtKB P37840
# protocol_description: Isothermal titration calorimetry (ITC) binding to alpha-synuclein
# conditions_used: Table 2, ITC

compound	Ka
Cn1c(=O)c2c(ncn2CCCCCCCCn2cnc3c2c(=O)n(C)c(=O)n3C)n(C)c1=O	400000 M⁻¹
Cn1c(=O)c2c(ncn2CCn2cnc3c2c(=O)n(C)c(=O)n3C)n(C)c1=O	30000 M⁻¹
CN(CCCCCCCc1nc2c(c(=O)n(C)c(=O)n2C)n1C)C(=N)NC(=N)N.Cl	640000 M⁻¹
Cn1c(=O)c2c(ncn2CCCCCCNC2CCc3ccccc32)n(C)c1=O (centres unmarked)	2e+06 M⁻¹
Cn1c(=O)c2c(ncn2CCCCN2CCCC2c2cccnc2)n(C)c1=O (racemic)	3e+06 M⁻¹
Cn1c(=O)c2c(nc(CCCCCCc3nc4c(c(=O)n(C)c(=O)n4C)n3C)n2C)n(C)c1=O	2e+08 M⁻¹
Cn1c(=O)c2c(ncn2CCN2CCCC2c2cccnc2)n(C)c1=O (racemic)	50000 M⁻¹
Cn1c(=O)c2c(ncn2CCCCCCCCNC2CCc3ccccc32)n(C)c1=O (centres unmarked)	2e+07 M⁻¹

###

# # Binding sites per entry
# subject_of_test: alpha-synuclein (Homo sapiens)
# protocol_description: Isothermal titration calorimetry (ITC) binding to alpha-synuclein
# conditions_used: Table 2

compound	# Binding sites
Cn1c(=O)c2c(ncn2CCCCCCN2CCCC2c2cccnc2)n(C)c1=O (racemic)	1
Cn1c(=O)c2c(ncn2CCCCCCCCN2CCCC2c2cccnc2)n(C)c1=O (racemic)	1
Cn1c(=O)c2c(ncn2CCNC2CCc3ccccc32)n(C)c1=O (stereo not drawn)	1
Cn1c(=O)c2c(ncn2CCCCCCNC2CCc3ccccc32)n(C)c1=O (stereo not drawn)	1
Cn1c(=O)c2c(ncn2CCN2CCCC2c2cccnc2)n(C)c1=O (racemic)	1
Cn1c(=O)c2c(nc(CCc3nc4c(c(=O)n(C)c(=O)n4C)n3C)n2C)n(C)c1=O	1
N[C@H]1CCc2ccccc21 [S-Aminoindan, reference compound]	1
Cn1c(=O)c2c(nc(CCCCCCN3CCCC3c3cccnc3)n2C)n(C)c1=O (racemic)	1
CN1CCCC1c1cccnc1 (stereo not drawn) [Nicotine, nicotine, reference compound]	1
